target: Platelet-derived growth factor receptor beta (Homo sapiens) (UniProt P09619);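 note: each value is a mean percent inhibition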
Sequence (P09619 whole entry): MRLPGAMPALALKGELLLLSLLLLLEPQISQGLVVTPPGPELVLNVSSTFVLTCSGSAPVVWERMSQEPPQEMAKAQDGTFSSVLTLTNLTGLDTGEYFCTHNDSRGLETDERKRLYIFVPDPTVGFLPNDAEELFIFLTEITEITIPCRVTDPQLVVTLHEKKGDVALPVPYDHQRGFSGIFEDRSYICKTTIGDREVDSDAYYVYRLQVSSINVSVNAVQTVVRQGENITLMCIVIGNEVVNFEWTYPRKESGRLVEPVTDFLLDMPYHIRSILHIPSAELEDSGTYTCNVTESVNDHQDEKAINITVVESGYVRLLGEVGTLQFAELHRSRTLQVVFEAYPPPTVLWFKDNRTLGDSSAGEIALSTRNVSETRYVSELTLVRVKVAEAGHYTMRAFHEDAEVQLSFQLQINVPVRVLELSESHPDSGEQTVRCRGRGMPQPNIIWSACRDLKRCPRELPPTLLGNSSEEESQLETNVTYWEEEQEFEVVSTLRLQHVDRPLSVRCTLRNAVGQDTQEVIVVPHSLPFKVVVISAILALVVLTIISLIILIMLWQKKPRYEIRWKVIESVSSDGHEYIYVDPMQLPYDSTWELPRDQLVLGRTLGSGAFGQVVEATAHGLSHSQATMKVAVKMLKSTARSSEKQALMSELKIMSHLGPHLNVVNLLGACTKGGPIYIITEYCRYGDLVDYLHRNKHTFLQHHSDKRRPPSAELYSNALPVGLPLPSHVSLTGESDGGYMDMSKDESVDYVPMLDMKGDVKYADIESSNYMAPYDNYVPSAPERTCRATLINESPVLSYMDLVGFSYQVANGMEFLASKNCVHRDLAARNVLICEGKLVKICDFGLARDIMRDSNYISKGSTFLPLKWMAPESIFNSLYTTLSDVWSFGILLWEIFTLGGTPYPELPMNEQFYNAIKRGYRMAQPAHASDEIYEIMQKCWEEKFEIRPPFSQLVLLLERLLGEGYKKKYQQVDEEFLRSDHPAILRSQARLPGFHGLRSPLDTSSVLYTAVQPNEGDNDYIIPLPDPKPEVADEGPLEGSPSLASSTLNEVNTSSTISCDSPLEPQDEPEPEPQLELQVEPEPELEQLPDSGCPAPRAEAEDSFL
conditionNotes: at 1 µM
inhibition by entry:
Please state the figure in %; there is no need to write the unit.

IN: I am curious: what inhibition value has been reported for "COc1cc(Nc2nccc(Nc3ccc4c(C)n[nH]c4c3)n2)cc(OC)c1OC" ?
OUT: 87.5

IN: Another compound: "CN(C)CCOc1ccc(-c2nc(-c3ccncc3)c(-c3ccc4c(c3)CC/C4=N\O)[nH]2)cc1"
OUT: 15.7

Others:
IN: I am curious: what inhibition value has been reported for "COc1ccc(-c2cc3c(N)ncnc3o2)cc1" ?
OUT: 11.2

IN: Another compound: "Fc1cccc(COc2ccc(Nc3ncnc4sc(-c5ccco5)cc34)cc2Cl)c1"
OUT: 15

IN: Another compound: "CCn1c(-c2nonc2N)nc2c(C#CC(C)(C)O)nc(OC[C@H](N)c3ccccc3)cc21"
OUT: 57.2

IN: Another compound: "COc1ccc(-c2nn3ncccc3c2-c2ccnc(Nc3ccc4c(c3)OCCO4)n2)cc1"
OUT: 20.6

IN: Another compound: "COC(=O)Nc1nc2ccc(S(=O)(=O)c3ccc(NC(=O)Nc4cc(C(F)(F)F)ccc4F)cc3)cc2[nH]1"
OUT: 4.49

IN: Another compound: "COc1ccc(CNC(=O)c2ccc(-c3cc(-c4nnc(C)o4)ccc3C)cc2)cc1"
OUT: 13

IN: Another compound: "Cc1ccc2c(-c3ccnc(Nc4ccccc4)n3)c(-c3ccc(F)cc3)nn2n1"
OUT: 68.1

IN: Another compound: "Fc1ccc(-c2cc(-c3c[nH]nc3-c3ccccn3)ccn2)cc1"
OUT: 11.8

---

inhibition by entry:
target: Tyrosine-protein kinase Lck (Homo sapiens) (UniProt P06239);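 note: reported values are mean percent inhibition of Lck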
Sequence (P06239 2-509 limits assumed): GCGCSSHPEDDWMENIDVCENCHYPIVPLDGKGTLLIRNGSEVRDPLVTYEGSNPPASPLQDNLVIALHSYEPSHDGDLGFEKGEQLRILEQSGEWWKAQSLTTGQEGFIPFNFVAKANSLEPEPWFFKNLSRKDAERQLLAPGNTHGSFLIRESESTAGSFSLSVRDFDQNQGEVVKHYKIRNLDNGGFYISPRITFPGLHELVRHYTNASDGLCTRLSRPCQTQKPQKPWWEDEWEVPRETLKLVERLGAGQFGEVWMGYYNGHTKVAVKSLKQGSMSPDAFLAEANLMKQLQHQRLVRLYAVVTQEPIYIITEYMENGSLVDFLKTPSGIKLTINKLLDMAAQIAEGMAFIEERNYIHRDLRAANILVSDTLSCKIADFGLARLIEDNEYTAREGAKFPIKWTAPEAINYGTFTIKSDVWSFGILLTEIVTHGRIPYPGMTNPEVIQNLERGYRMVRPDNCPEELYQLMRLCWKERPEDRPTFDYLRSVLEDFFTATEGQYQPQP
conditionNotes: at 0.1 µM
Please state the figure in %; there is no need to write the unit.

IN: I am curious: what inhibition value has been reported for "CS(=O)(=O)CCNCc1ccc(-c2ccc3ncnc(Nc4ccc(OCc5ccccc5)c(C(F)(F)F)c4)c3c2)o1" ?
OUT: 3.56

IN: Another compound: "Fc1ccc(-c2cc(-c3c[nH]nc3-c3ccccn3)ccn2)cc1"
OUT: 1.94

IN: Another compound: "Nc1nc(-c2ccc(F)cc2)c(-c2ccc3ncccc3n2)s1"
OUT: 9.43

Others:
IN: I am curious: what inhibition value has been reported for "CCNC(=O)O[C@H]1CN[C@H](C#Cc2cc3ncnc(Nc4ccc(OCc5cccc(F)c5)c(Cl)c4)c3s2)C1" ?
OUT: 3.42

IN: Another compound: CC1=C(C(=O)Nc2cc(Cl)c3[nH]ncc3c2)C(c2ccc(C(F)(F)F)cc2)CC(=O)N1 (centres undefined)
OUT: 4.9

IN: Another compound: "O=C(O[C@H]1CN[C@H](C#Cc2cc3ncnc(Nc4ccc(Cc5ccccc5)cc4)c3s2)C1)N1CCOCC1"
OUT: 2.19

---

target: Serine/threonine-protein kinase PAK 1 (Homo sapiens);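 note: reported values are mean percent inhibition of PAK1 activity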
conditionNotes: at 1 µM
inhibition by entry:
Please state the figure in %; there is no need to write the unit.

IN: I am curious: what inhibition value has been reported for "Cc1cccc(Nc2ncc(-c3ccccc3)o2)c1" ?
OUT: 3.35

IN: Another molecule: "CNC(=O)c1cc(-c2ccc(F)cc2)cc(-c2ccc(S(=O)(=O)N3CCCC3)cc2)c1N"
OUT: 9.51

IN: Another molecule: "Cc1ccc2c(-c3ccnc(Nc4ccccc4)n3)c(-c3ccc(F)cc3)nn2n1"
OUT: 6.67

IN: Another molecule: "COc1cccc(-c2c[nH]c3c(N/N=C/c4ccncc4)ncnc23)c1"
OUT: 1.11

IN: Another molecule: "Cc1ccc(O)cc1Nc1ccnc2cc(-c3ccccn3)ccc12"
OUT: 8.64

Then this molecule:
IN: I am curious: what inhibition value has been reported for "COc1ccc(-c2nn3ncccc3c2-c2ccnc(Nc3ccc4c(c3)OCCO4)n2)cc1" ?
OUT: -2.26

---

inhibition by entry:
target: Activated CDC42 kinase 1 (Homo sapiens) (UniProt Q07912)
Sequence (Q07912 whole entry, looked up): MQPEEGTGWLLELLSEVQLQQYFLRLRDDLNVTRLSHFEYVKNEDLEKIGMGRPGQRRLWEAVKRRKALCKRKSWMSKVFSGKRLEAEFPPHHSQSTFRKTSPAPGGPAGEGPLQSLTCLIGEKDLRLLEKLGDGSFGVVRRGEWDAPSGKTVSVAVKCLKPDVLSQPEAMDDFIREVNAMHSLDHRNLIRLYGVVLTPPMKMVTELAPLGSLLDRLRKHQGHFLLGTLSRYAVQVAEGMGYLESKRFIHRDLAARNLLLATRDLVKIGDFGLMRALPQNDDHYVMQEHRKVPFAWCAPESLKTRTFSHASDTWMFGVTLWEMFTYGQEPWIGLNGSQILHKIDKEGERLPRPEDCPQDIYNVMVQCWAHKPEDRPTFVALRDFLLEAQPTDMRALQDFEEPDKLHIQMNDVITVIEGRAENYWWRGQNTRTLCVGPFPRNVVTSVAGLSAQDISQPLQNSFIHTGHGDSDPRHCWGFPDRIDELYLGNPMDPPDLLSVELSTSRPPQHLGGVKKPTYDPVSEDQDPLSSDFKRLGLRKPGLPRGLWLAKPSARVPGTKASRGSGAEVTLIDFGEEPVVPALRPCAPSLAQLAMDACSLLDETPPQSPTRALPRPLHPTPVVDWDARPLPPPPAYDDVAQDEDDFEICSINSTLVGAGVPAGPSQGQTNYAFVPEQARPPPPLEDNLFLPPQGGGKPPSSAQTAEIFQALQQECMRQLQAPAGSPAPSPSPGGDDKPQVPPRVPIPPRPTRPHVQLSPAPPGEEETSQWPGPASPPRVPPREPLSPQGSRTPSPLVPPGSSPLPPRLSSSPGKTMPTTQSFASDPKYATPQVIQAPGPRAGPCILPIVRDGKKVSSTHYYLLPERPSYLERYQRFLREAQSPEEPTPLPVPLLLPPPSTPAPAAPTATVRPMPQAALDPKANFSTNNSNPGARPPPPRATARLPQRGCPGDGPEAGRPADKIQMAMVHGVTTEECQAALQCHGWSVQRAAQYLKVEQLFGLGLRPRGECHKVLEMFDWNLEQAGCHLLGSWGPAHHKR
conditionNotes: at 1 µM
Description: GSK_PKIS: TNK2 mean inhibition at 1 uM [Nanosyn]
Please state the figure in %; there is no need to write the unit.

IN: I am curious: what inhibition value has been reported for "NC(=O)c1sc(-n2cnc3ccc(C(F)(F)F)cc32)cc1OCc1ccccc1Br" ?
OUT: 0.65

IN: Another compound: "CN1CCC(n2cnc(-c3ccc(F)cc3)c2-c2ccnc(N)n2)CC1"
OUT: 1.23

---

target: Fibroblast growth factor receptor 1 (Homo sapiens);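 note: values are reported as mean percent inhibition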
conditionNotes: at 0.1 µM
measuredParameter: inhibition (%)
Please state the figure in %; there is no need to write the unit.

Example results:
IN: Fill in the recorded inhibition for this compound, with Fibroblast growth factor receptor 1 (Homo sapiens) as test system: "[O-][S+]1CCN(Cc2ccc(-c3ccc4ncnc(Nc5ccc(OCc6cccc(F)c6)c(Cl)c5)c4c3)o2)CC1"
OUT: 3.95

IN: Another compound: "O=S(=O)(CCNCc1ccc(-c2ccc3ncnc(Nc4ccc(OCc5cccc(F)c5)c(Cl)c4)c3c2)o1)c1ccccc1"
OUT: 3.65

IN: Another compound: "CN(C)CCOc1ccc(-c2nc(-c3ccncc3)c(-c3ccc4c(c3)CC/C4=N\O)[nH]2)cc1"
OUT: 6.05

IN: Another compound: "COc1ccc(-c2cc(-c3c[nH]nc3-c3ccccn3)ccn2)cc1"
OUT: 1.12

IN: Another compound: "c1ccc(COc2ccc(Nc3ncnc4ccc(-c5ccco5)cc34)cc2)cc1"
OUT: -8.22

IN: Another compound: "CC(C)COC(=O)c1ccc2c(c1)/C(=C/Nc1ccc(S(N)(=O)=O)cc1)C(=O)N2"
OUT: 0.13

IN: Another compound: "COc1ccc2[nH]c3c4[nH]c5ccc(OC)cc5c4c4c(c3c2c1)C(=O)NC4=O"
OUT: 1.76

IN: Another compound: "NS(=O)(=O)c1ccc(N/N=C2\C(=O)Nc3ccc4ncccc4c32)cc1"
OUT: 10.8

Then this compound:
IN: Fill in the recorded inhibition for this compound, with Fibroblast growth factor receptor 1 (Homo sapiens) as test system: "COC(=O)Nc1nc2ccc(S(=O)(=O)c3ccc(NC(=O)Nc4cc(C(F)(F)F)ccc4F)cc3)cc2[nH]1"
OUT: 3.55

---

target: Tyrosine-protein kinase ZAP-70 (Homo sapiens);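 note: values are mean percent inhibition of ZAP-70 kinase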
conditionNotes: at 0.1 µM
inhibition by entry:
Please state the figure in %; there is no need to write the unit.

Example results:
IN: I am curious: what inhibition value has been reported for "CCOc1ccc2c(-c3ccnc(Nc4cccc(C(F)(F)F)c4)n3)cnn2n1" ?
OUT: 0.89

IN: Another compound: "Nc1ncc(-c2cccc(S(N)(=O)=O)c2)c2scc(-c3ccc(F)c(Cl)c3)c12"
OUT: 1.28

IN: Another compound: "COc1ccc2c(-c3ccnc(Nc4cccc(OC(F)(F)F)c4)n3)cnn2n1"
OUT: 0.87

IN: Another compound: "COc1ccc(-c2cc(-c3c[nH]nc3-c3ccccn3)ccn2)cc1"
OUT: 1.69

IN: Another compound: "Nc1nc(-c2cccc(Cl)c2)c(-c2ccc3ncccc3n2)s1"
OUT: 4.31

Others:
IN: I am curious: what inhibition value has been reported for "CN1CCC(n2cnc(-c3ccc(F)cc3)c2-c2ccnc(N)n2)CC1" ?
OUT: 1.2

IN: Another compound: "NS(=O)(=O)c1ccc(N/N=C2\C(=O)Nc3ccc4ncccc4c32)cc1"
OUT: 3.49

IN: Another compound: "CS(=O)(=O)CCNCc1coc(-c2ccc3ncnc(Nc4ccc(OCc5ccccc5)cc4)c3c2)c1"
OUT: 1.16

IN: Another compound: "CCn1c(-c2nonc2N)nc2cnc(Oc3cccc(NC(=O)c4ccc(N(C)C)cc4)c3)cc21"
OUT: 1.81

IN: Another compound: "Cc1ccc2c(-c3ccnc(Nc4ccccc4)n3)c(-c3ccc(F)cc3)nn2n1"
OUT: 2.85

---

inhibition by entry:
System: Platelet-derived growth factor receptor alpha (Homo sapiens), P16234 [V561D]
Sequence (P16234 whole entry V561D): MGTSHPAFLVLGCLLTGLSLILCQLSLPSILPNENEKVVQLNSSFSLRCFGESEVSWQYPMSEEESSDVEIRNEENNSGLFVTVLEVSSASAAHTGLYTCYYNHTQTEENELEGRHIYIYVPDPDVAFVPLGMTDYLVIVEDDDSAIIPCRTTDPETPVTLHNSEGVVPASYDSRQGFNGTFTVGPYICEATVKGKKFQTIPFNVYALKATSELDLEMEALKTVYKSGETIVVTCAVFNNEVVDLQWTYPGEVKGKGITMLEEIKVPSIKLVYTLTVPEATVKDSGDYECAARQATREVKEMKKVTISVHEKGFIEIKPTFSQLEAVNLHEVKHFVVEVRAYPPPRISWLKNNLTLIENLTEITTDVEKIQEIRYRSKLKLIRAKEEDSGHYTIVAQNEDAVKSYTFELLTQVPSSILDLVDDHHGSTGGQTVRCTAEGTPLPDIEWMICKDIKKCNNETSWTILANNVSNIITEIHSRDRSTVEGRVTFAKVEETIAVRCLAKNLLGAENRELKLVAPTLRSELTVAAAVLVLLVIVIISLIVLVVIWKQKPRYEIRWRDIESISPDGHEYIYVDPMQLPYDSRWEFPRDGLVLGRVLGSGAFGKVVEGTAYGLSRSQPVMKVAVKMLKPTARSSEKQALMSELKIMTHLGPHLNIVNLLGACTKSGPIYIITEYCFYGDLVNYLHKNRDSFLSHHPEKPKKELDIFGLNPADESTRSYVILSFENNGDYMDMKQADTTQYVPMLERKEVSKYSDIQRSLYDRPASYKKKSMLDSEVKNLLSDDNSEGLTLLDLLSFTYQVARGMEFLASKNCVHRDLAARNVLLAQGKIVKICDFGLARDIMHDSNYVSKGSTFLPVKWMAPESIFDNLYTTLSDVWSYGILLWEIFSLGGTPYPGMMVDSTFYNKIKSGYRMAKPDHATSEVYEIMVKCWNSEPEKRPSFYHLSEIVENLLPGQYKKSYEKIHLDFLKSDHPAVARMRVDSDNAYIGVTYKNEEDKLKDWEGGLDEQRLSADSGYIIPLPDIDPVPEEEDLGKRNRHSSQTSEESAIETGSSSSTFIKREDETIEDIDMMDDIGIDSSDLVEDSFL
conditionNotes: at 1 µM
Please state the figure in %; there is no need to write the unit.

Example results:
IN: Fill in the recorded inhibition for this compound, with Platelet-derived growth factor receptor alpha (Homo sapiens), P16234 [V561D] as test system: "CN1CCC(n2cnc(-c3ccc(F)cc3)c2-c2ccnc(Nc3ccccc3)n2)CC1"
OUT: 15.5

IN: Another compound: "N#Cc1c(NC(=O)c2ccc(F)cc2)sc2c1CCCC2"
OUT: 3.17

IN: Another compound: "CNC(=O)c1cccc(C#Cc2cncnc2Nc2ccc(OCc3cccc(F)c3)c(Cl)c2)c1"
OUT: 4.6

IN: Another compound: "COc1cc2c(cc1Nc1nc(Nc3ccsc3C(N)=O)c3cc[nH]c3n1)N(C(=O)CN(C)C)CCC2(C)C"
OUT: 46.1

IN: Another compound: "c1ccc(-c2nc3n(c2-c2ccc4c(c2)OCO4)CCC3)nc1"
OUT: 2.33

IN: Another compound: "Nc1nc(-c2ccc(F)cc2)c(-c2ccc3ncccc3n2)s1"
OUT: 49.5

IN: Another compound: "COc1cc(N2CCN(C(C)C)CC2)ccc1Nc1nc(Nc2ccc(F)cc2C(N)=O)c2cc[nH]c2n1"
OUT: 21.8

IN: Another compound: "Nc1nc(-c2cccc(Cl)c2)c(-c2ccc3ncccc3n2)s1"
OUT: 26.7

IN: Another compound: "NS(=O)(=O)c1ccc(N/N=C2\C(=O)Nc3ccc4ncccc4c32)cc1"
OUT: 92.4

IN: Another compound: "O=C(O[C@H]1CN[C@H](C#Cc2cc3ncnc(Nc4ccc(Cc5ccccc5)cc4)c3s2)C1)N1CCOCC1"
OUT: 1.53

Others:
IN: Fill in the recorded inhibition for this compound, with Platelet-derived growth factor receptor alpha (Homo sapiens), P16234 [V561D] as test system: "COc1ccc2c(-c3ccnc(Nc4cccc(OC(F)(F)F)c4)n3)cnn2n1"
OUT: 19.4

IN: Another compound: "CCN1CCC(CC(=O)Nc2n[nH]c3nnc(-c4cccc(F)c4F)cc23)CC1"
OUT: 3.83

IN: Another compound: "CCn1c(-c2nonc2N)nc2cnc(Oc3cccc(NC(=O)c4ccc(N(C)C)cc4)c3)cc21"
OUT: 6.18

IN: Another compound: "COc1ccc(CNC(=O)c2ccc(-c3cc(-c4nnc(C)o4)ccc3C)cc2)cc1"
OUT: 4.07

IN: Another compound: "CCc1nn2ncccc2c1-c1ccnc(NC2CC2)n1"
OUT: 5.92

IN: Another compound: "COc1cccc(-c2c[nH]c3c(N/N=C/c4ccncc4)ncnc23)c1"
OUT: 93

IN: Another compound: "COc1cc2ncn(-c3cc(OCc4ccccc4C(F)(F)F)c(C(=O)N(C)C)s3)c2cc1OC"
OUT: 26.5

IN: Another compound: "CNC(=O)c1cc(-c2ccc(F)cc2)cc(-c2ccc(S(=O)(=O)N3CCCC3)cc2)c1N"
OUT: 2.29

IN: Another compound: "[O-][S+]1CCN(Cc2ccc(-c3ccc4ncnc(Nc5ccc(OCc6cccc(F)c6)c(Cl)c5)c4c3)o2)CC1"
OUT: 8.29

IN: Another compound: "COc1ccc(-c2cc(-c3c[nH]nc3-c3ccccn3)ccn2)cc1"
OUT: 40.6
